Recorded LogD values for a group of molecules are listed next.
# TEST: Determination of the distribution coefficients (logD), n-octanol/PBS
# Type: physicochemical
# MEASUREMENT CONTEXT: n-octanol / PBS pH = 7.40, rt

- MOLECULE: "Cc1ccc(C(C)C)cc1.F[P-](F)(F)(F)(F)F.O=C(OCC1OC(n2cc(-c3ccccn3)nn2)C(OC(=O)c2ccccc2)C(OC(=O)c2ccccc2)C1OC(=O)c1ccccc1)c1ccccc1.[Cl][Os+] (mixture of isomers) [Os-6]"
  LogD: 2.33
- MOLECULE: "Cc1c(C)c(C)[c-](C)c1C.F[P-](F)(F)(F)(F)F.OCC1OC(c2nnc(-c3ccccn3)o2)C(O)C(O)C1O.[Cl][Ir+2] (mixture of isomers) [Ir-8]"
  LogD: "−1.60"
- MOLECULE: "Cc1c(C)c(C)[c-](C)c1C.F[P-](F)(F)(F)(F)F.O=C(OCC1OC(c2nnc(-c3ccccn3)o2)C(OC(=O)c2ccccc2)C(OC(=O)c2ccccc2)C1OC(=O)c1ccccc1)c1ccccc1.[Cl][Ir+2] (mixture of isomers) [Ir-4]"
  LogD: 1.46
- MOLECULE: "Cc1ccc(C(C)C)cc1.F[P-](F)(F)(F)(F)F.O=C(OCC1OC(c2noc(-c3ccccn3)n2)C(OC(=O)c2ccccc2)C(OC(=O)c2ccccc2)C1OC(=O)c1ccccc1)c1ccccc1.[Cl][Ru+] (mixture of isomers) [Ru-1]"
  LogD: 2.79

---

# Test system: ID8 ovarian cancer cell line
# TEST: MTT reduction assay, 4 h, rapid toxicity, ID8
# Assay type: cell-based
# MEASUREMENT CONTEXT: MTT assay, 4 h treatment; ND = not detected or cannot be calculated
Recorded Maximum Inhibition (%) ID8 values for a group of compounds are listed next.

- COMPOUND: "Cc1c(C)c(C)[c-](C)c1C.F[P-](F)(F)(F)(F)F.O=C(OC1COC(c2nnc(-c3ccccn3)o2)C(OC(=O)c2ccccc2)C1OC(=O)c1ccccc1)c1ccccc1.[Cl][Rh+2] (mixture of isomers) [Rh-5]"
  READOUT UNIT: "%"
  Maximum Inhibition (%) ID8: 21.87
- COMPOUND: "Cc1c(C)c(C)[c-](C)c1C.F[P-](F)(F)(F)(F)F.O=C(OCC1OC(n2cc(-c3ccccn3)nn2)C(OC(=O)c2ccccc2)C(OC(=O)c2ccccc2)C1OC(=O)c1ccccc1)c1ccccc1.[Cl][Ir+2] (mixture of isomers) [Ir-6]"
  READOUT UNIT: "%"
  Maximum Inhibition (%) ID8: 62.71
- COMPOUND: "Cc1c(C)c(C)[c-](C)c1C.F[P-](F)(F)(F)(F)F.O=C(OCC1OC(n2cc(-c3ccccn3)nn2)C(OC(=O)c2ccccc2)C(OC(=O)c2ccccc2)C1OC(=O)c1ccccc1)c1ccccc1.[Cl][Rh+2] (mixture of isomers) [Rh-6]"
  READOUT UNIT: "%"
  Maximum Inhibition (%) ID8: 28.28
- COMPOUND: "Cc1ccc(C(C)C)cc1.F[P-](F)(F)(F)(F)F.O=C(OCC1OC(n2cc(-c3ccccn3)nn2)C(OC(=O)c2ccccc2)C(OC(=O)c2ccccc2)C1OC(=O)c1ccccc1)c1ccccc1.[Cl][Os+] (mixture of isomers) [Os-6]"
  READOUT UNIT: "%"
  Maximum Inhibition (%) ID8: 64.44
